Some binders, each annotated with its measured Relative binding affinity.
target: human somatostatin receptor subtype SSTR4 (human) (UniProt P31391); experiment: FACS, transfected HEK-293 cells
Sequence (P31391 whole entry): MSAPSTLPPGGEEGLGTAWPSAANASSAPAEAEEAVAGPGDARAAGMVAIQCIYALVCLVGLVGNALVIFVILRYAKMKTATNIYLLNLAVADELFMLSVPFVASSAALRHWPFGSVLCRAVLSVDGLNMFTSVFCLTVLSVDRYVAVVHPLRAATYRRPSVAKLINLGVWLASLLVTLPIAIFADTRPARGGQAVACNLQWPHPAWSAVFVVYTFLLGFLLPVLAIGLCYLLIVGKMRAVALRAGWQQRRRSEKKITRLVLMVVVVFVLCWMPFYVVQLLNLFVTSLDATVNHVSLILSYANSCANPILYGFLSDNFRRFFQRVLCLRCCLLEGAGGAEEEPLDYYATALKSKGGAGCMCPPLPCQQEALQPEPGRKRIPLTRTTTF
*1 amine or outer side, *2 acyl side, *3 side chain or, on linkers, in order; H or OH if unused. Bridges are numbered along the chain shown (N, C = ends). Primed or numbered codes have the meaning given here. [ ]: non-standard residue; d: D form. N(2-mercaptoethyl)Gly = O=C(CN(CCS[*:3])[*:1])[*:2]; FITC′ = fluorescein isothiocyanate; Orn = NCCC[C@H](N)C(=O)O; Aib = CC(C)(N)C(=O)O; GABA = NCCCC(=O)O
Provide the reading as a plain figure in %.

Consider the following illustrative entries.
Return reported Relative binding affinity; argument: {FITC′-GABA}-[dF]RCF[dW][Orn]TF[N(2-mercaptoethyl)Gly]-NH2 (disulfide 3-9) [Compound 5]
1

Consider the binder shown here: {FITC′-GABA}-[dF]CFW[dW][Aib]TF[N(2-mercaptoethyl)Gly]-NH2 (disulfide 2-9) [Compound 13] What is its recorded Relative binding affinity?
4

Fill blank: measured Relative binding affinity of the binder XCFWXXTFX (FITC-GABA-DPhe-Cys*-Phe-Trp-DTrp-Orn-Thr-Phe-GlyS2*-NH2 (* = S-S bond; GlyS2 = N-thioethyl glycine; Orn = ornithine; C-terminal amide)) [Compound 3] is ____.
13.3

Give the measured Relative binding affinity of XCFWXKTFX (FITC-GABA-DPhe-Cys*-Phe-Trp-DTrp-Lys-Thr-Phe-GlyS2*-NH2 (* = S-S bond; GlyS2 = N-thioethyl glycine; FITC-GABA on the N-terminal amine; C-terminal amide)) [Compound 1] .
22.5

For the binder {FITC′-GABA}-[dF]CRFF[dW]KTF[N(2-mercaptoethyl)Gly]-NH2 (disulfide 2-10) [Compound 8] , what Relative binding affinity is on record?
31.5

# evaluate next
Query: Relative binding affinity; subject: {FITC′-GABA}-[dF]CFW[dW]RTF[N(2-mercaptoethyl)Gly]-NH2 (disulfide 2-9) [Compound 15]
9
